Molecular target: T1, ARHGAP21, Q5T5U3
T1 sequence (Q5T5U3 45-169, limits assumed, looked up): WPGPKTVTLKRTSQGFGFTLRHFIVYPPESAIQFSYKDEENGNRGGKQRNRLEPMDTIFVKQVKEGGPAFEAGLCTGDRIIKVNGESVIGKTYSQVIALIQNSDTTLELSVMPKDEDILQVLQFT
Assay: holdup assay
Parameters: key: below the threshold = too weak to quantify, mostly under pKd 3.1 to 4
Conditions: plain residues with an end cap or a label only (N-terminal biotin on a linker: ado-ado)
measure: pKd

binder: ARGPPRESEV [FAM110D, Q8TAY7]
measure: pKd
assay result: 3.8
//
binder: REEPDHSTEV [CCRL2, O00421]
measure: pKd
assay result: 4.21
//
binder: PTPDLPQTRV [KLHDC7A, Q5VTJ3]
measure: pKd
assay result: below the threshold
//
binder: KKMLQRRTLL [OR8G1, Q15617]
measure: pKd
assay result: below the threshold
